Would you mind telling me the reported hAPJ Ca2+ Flux EC50 of each entry?
Target: T1, human APJ receptor (hAPJ) (human, UniProt P35414 1-380)
T1 sequence (looked up): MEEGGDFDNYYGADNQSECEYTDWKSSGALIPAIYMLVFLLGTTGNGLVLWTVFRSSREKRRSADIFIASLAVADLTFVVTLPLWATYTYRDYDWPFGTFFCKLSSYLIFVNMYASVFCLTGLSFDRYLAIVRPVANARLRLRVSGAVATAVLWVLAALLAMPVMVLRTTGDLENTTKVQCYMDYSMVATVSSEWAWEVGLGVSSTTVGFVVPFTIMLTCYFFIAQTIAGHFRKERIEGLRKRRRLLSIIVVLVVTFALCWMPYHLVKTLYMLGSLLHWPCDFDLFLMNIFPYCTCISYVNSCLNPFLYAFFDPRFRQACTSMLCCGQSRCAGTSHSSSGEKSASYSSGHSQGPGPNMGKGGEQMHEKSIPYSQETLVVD
Assay: cell-based or functional assay
Bridges are numbered along the chain shown (N, C = ends). [ ]: non-standard residue; d: D form. The star is where a group is joined. pGlu = O=C1CC[C@@H](C(=O)O)N1; Lauroyl = CCCCCCCCCCCC(=O)*; Nle = CCCC[C@H](N)C(=O)O
One number for each entry, in nM.

Please review the entries below; each comes with its answer.
binder	hAPJ Ca2+ Flux EC50 / nM
[pGlu]RPRLCEKGP[Nle]CF-OH (disulfide 6-12; SMILES CCCC[C@@H]1NC(=O)[C@@H]2CCCN2C(=O)CNC(=O)[C@H](CCCCN)NC(=O)[C@H](CCC(=O)O)NC(=O)[C@@H](NC(=O)[C@H](CC(C)C)NC(=O)[C@H](CCCNC(=N)N)NC(=O)[C@@H]2CCCN2C(=O)[C@H](CCCNC(=N)N)NC(=O)[C@@H]2CCC(=O)N2)CSSC[C@@H](C(=O)N[C@@H](Cc2ccccc2)C(=O)O)NC1=O) [Example 43: pE-R-P-R-L-C-E-K-G-P-Nle-C-F-OH]	4.14
[pGlu]RPRKCHKGP[Nle]CF-OH (disulfide 6-12; SMILES CCCC[C@@H]1NC(=O)[C@@H]2CCCN2C(=O)CNC(=O)[C@H](CCCCN)NC(=O)[C@H](Cc2c[nH]cn2)NC(=O)[C@@H](NC(=O)[C@H](CCCCN)NC(=O)[C@H](CCCNC(=N)N)NC(=O)[C@@H]2CCCN2C(=O)[C@H](CCCNC(=N)N)NC(=O)[C@@H]2CCC(=O)N2)CSSC[C@@H](C(=O)N[C@@H](Cc2ccccc2)C(=O)O)NC1=O) [Example 37: pE-R-P-R-K-C-H-K-G-P-Nle-C-F-OH]	1.4
[pGlu]R[dP]RLCHKGP[Nle]CF-OH (disulfide 6-12; SMILES CCCC[C@@H]1NC(=O)[C@@H]2CCCN2C(=O)CNC(=O)[C@H](CCCCN)NC(=O)[C@H](Cc2c[nH]cn2)NC(=O)[C@@H](NC(=O)[C@H](CC(C)C)NC(=O)[C@H](CCCNC(=N)N)NC(=O)[C@H]2CCCN2C(=O)[C@H](CCCNC(=N)N)NC(=O)[C@@H]2CCC(=O)N2)CSSC[C@@H](C(=O)N[C@@H](Cc2ccccc2)C(=O)O)NC1=O) [Example 33: pE-R-p-R-L-C-H-K-G-P-Nle-C-F-OH]	8.1

Which hAPJ Ca2+ Flux EC50 value belongs to [pGlu]RPRLCHKGP[Nle]CK(Lauroyl)-OH (disulfide 6-12; SMILES CCCCCCCCCCCC(=O)NCCCC[C@H](NC(=O)[C@@H]1CSSC[C@H](NC(=O)[C@H](CC(C)C)NC(=O)[C@H](CCCNC(=N)N)NC(=O)[C@@H]2CCCN2C(=O)[C@H](CCCNC(=N)N)NC(=O)[C@@H]2CCC(=O)N2)C(=O)N[C@@H](Cc2c[nH]cn2)C(=O)N[C@@H](CCCCN)C(=O)NCC(=O)N2CCC[C@H]2C(=O)N[C@@H](CCCC)C(=O)N1)C(=O)O) [Example 26: pE-R-P-R-L-C-H-K-G-P-Nle-C-K(Lauroyl)-OH] ? 29.8
